# Experimental system: T1, TNFR1 (Homo sapiens, UniProt P19438)
# T1 chain: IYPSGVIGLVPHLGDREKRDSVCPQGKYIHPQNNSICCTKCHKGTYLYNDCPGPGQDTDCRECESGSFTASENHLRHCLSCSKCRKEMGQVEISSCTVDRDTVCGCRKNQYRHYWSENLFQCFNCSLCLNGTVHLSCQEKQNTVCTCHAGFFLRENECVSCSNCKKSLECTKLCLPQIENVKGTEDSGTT
# Test name: yeast display SC50
Below: a set of entries, each annotated with reported apparent Kd (screen).
State just the number; it will be interpreted in nM.

>  <Binder>
W70G (designed binder) MTLQELLREEALRRAEAEAFRYALELLAEKFPEQKEYLLDLAEEIESQIRSLSGVDVEDVRKFLDKEWAGVKELLAEHPAELAEVEAARAARLAELRAEVEAKVAA

>  <Quantitative readout>
16.7

$$$$

Pending binder:
Please fill in: apparent Kd (screen) reported for A87Y (designed binder) MTLQELLREEALRRAEAEAFRYALELLAEKFPEQKEYLLDLAEEIESQIRSLSGVDVEDVRKFLDKEWAWVKELLAEHPAELAEVEYARAARLAELRAEVEAKVAA = 0.79
